Values from ChEMBL document CHEMBL3988442

Test system: Wolbachia pipientis
Assay: Anti-Wolbachia Cell-Based Screen
Assay type: functional
Parameters: scale not given: in the data most compounds retested in dose-response had high values
Conditions: 5 µM
Screen size: about 48,000 compounds; about 13,000 (27%) showed an effect of 50% or more. This is one part of the list.
Listing of recorded Percent Effect by entry.

Worked examples, 5 molecules total:
CCNc1cc2c(nn1)CCN(C(=O)C1Cc3ccccc3O1)C2 (stereo not drawn) : -6.016%
COCc1noc(-c2ccc(N3CCCCC3CCCO)nc2)n1 (stereo not drawn) : 5.834%
CCNc1cc2c(nn1)CCN(C(=O)CCc1c(C)noc1C)C2 : 85.75%
NC(=O)NCC1CCCCN1C(=O)c1cccc(C(F)(F)F)c1 (stereo not drawn) : 3.602%
Cn1cccc1CNCC1CCCn2cc(C(C)(C)C)nc21 (stereo not drawn) : 4.297%

Q: Provide one value: measured Percent Effect of CCC(=O)N1CCc2[nH]cnc2C12CCN(C1CCOCC1)CC2
Result: -8.971%

Q: Look up and state reported Percent Effect for CC(c1ccccc1)N(C)C(=O)CN1CCN(c2cnccn2)CC1 (stereo not drawn)
Result: -4.354%

Q: Please indicate Percent Effect recorded for CC(C)c1nccn1C(C)C(=O)N1CCN(c2cnccn2)CC1 (stereo not drawn)
Result: 8.025%

* * *

Tested on: Wolbachia pipientis
Assay: Anti-Wolbachia Cell-Based Screen
Type: functional
Set-up: scale not given: in the data most compounds retested in dose-response had high values
Details: 5 µM
The whole screen tested about 48,000 compounds, of which about 13,000 (27%) showed an effect of 50% or more. The list shows a part of the results.
MEASURED PARAMETER: Percent Effect (%)
Expressed in %, but write only the number.

Sample records with Percent Effect:
CC(C)c1cc(NCC2(Cn3cccn3)CC2)n2nccc2n1 : -2.27
O=C(O)C(F)(F)F.c1cncc(COC2COC3(CCN(c4cnccn4)CC3)C2)c1 (stereo not drawn) : 8.045
Cn1ccc(CN2CCC(OCCc3ccccc3)CC2)cc1=O : 4.919

Q: Answer with reported Percent Effect of CN1CCC(Cc2cccc(-c3cc(F)ccc3C(=O)O)n2)CC1
Result: 135.9

Q: Return value of Percent Effect for input CC(C)c1cc(CN2CCC(N)CC2)on1 , no commentary.
Result: 102.3

Q: Please report the measured Percent Effect for O=C(NCCc1ccc(F)cc1)NCC(O)c1cccc(F)c1 (stereo not drawn)
Result: 98.05

Q: Determine from records and report Percent Effect for Cn1ccc(C(=O)NC2CCC23CCN(C(=O)c2ccccn2)CC3)c1 (stereo not drawn)
Result: -6.667

Q: Give Percent Effect for the following molecule: CC(C)N1CCC(CNC(=O)COc2ccc(F)cc2F)C1 (stereo not drawn)
Result: 8.17

* * *

Tested on: Wolbachia pipientis
Assay: Anti-Wolbachia Cell-Based Screen
Format: functional
Design: scale not given: in the data most compounds retested in dose-response had high values
Conditions: 5 µM
About 13,000 (27%) of roughly 48,000 compounds showed an effect of 50% or more. The list shows a part of the results.
Listed next: entries and their corresponding Percent Effect.
The figure you give is taken to be in %; do not add the unit.

Recorded Percent Effect, per entry:
Cc1ccsc1CN1CC[C@H]2OCC[C@@]2(C(=O)N2CCCO2)C1.O=C(O)C(F)(F)F : 103.7
O=C(N1CCOCC1)[C@@]12CCO[C@@H]1CCN(Cc1cccc(F)c1)C2.O=C(O)C(F)(F)F : 102.7
CCC1c2cccn2CCN1S(=O)(=O)N1CCOCC1 (stereo not drawn) : 79.2
COc1cccc(SCC(=O)N2CCC(N3CCCC(O)C3)CC2)c1 (stereo not drawn) : 2.194
Cn1cccc1C(O)CNC(=O)COc1ccccc1F (stereo not drawn) : -2.595

Q: Identify Percent Effect associated with the compound O=C(c1cnc(NCc2sccc2Br)c(Cl)c1)N1CCCCC1
Result: -7.953
